Biological target: BACE-2 (Homo sapiens, UniProt Q9Y5Z0)
Construct: Recombinant BACE-2 (extracellular domain, expressed in baculovirus and purified using standard methods)
Sequence (Q9Y5Z0 63-473 limits assumed): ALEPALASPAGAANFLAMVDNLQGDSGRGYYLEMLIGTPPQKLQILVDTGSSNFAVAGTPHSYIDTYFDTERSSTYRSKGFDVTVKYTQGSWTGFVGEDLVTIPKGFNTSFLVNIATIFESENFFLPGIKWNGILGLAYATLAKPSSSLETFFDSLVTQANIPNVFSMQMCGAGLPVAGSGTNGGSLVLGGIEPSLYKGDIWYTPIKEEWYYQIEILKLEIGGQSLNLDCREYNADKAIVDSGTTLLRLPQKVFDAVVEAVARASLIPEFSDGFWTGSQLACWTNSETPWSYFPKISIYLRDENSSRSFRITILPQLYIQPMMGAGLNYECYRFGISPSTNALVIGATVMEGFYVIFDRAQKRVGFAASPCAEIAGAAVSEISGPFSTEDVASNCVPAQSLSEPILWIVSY
Assay: assay for inhibition of BACE-2
Structures can show the parent of a compound that is named as a salt.
Observable: IC50 (nM)

{"columns": ["Compound", "Tgt", "Measurement units", "IC50"],
 "data": [
  ["[2H]c1nc(C(=O)Nc2cc(F)c(F)c([C@]3(C(F)F)COCC(N)=N3)c2)c(C([2H])([2H])[2H])c([2H])c1Cl", "BACE-2 (Homo sapiens, UniProt Q9Y5Z0)", "nM", 8],
  ["NC1=N[C@@](c2cc(NC(=O)c3cc(Br)co3)ccc2F)(C(F)F)COC1", "BACE-2 (Homo sapiens, UniProt Q9Y5Z0)", "nM", 102]
]}

I = NC1=N[C@@](c2cc(NC(=O)c3ncc(C(F)F)cc3N)ccc2F)(C(F)F)COC1
II = Cc1cc(C(F)F)cnc1C(=O)Nc1ccc(F)c([C@]2(C(F)F)COCC(N)=N2)c1
Between the entries labelled I and II , which has a larger IC50 value on record? In your reply, give the label of the chosen option. I
(I: 90 nM, II: 52 nM)

P = CCOc1cnc(C(=O)Nc2ccc(F)c([C@]3(C(F)F)COCC(N)=N3)c2)cn1
Q = C[C@H]1OC[C@](c2cc(NC(=O)c3ccc(C#N)cn3)ccc2F)(C(F)F)N=C1N (relative stereo) [Example 75, hydrochloride]
For the pair P and Q , which member has the lower IC50 number? Select an item and report its label. P
(P: 200 nM, Q: 355 nM)

1 = C#CCOc1cnc(C(=O)Nc2ccc(F)c([C@]3(C)CO[C@@](C)(C(F)(F)F)C(N)=N3)c2)c(N)n1
2 = COc1cc(Br)cnc1C(=O)Nc1ccc(F)c([C@]2(CF)COCC(N)=N2)c1
Between these two entries, 1 and 2 , state which has the higher IC50. Output the label that corresponds to your choice. 2

* * *

Molecular target: BACE-2 (Homo sapiens, UniProt Q9Y5Z0)
Construct: Recombinant BACE-2 (extracellular domain, expressed in baculovirus and purified using standard methods)
Sequence (Q9Y5Z0 63-473 limits assumed): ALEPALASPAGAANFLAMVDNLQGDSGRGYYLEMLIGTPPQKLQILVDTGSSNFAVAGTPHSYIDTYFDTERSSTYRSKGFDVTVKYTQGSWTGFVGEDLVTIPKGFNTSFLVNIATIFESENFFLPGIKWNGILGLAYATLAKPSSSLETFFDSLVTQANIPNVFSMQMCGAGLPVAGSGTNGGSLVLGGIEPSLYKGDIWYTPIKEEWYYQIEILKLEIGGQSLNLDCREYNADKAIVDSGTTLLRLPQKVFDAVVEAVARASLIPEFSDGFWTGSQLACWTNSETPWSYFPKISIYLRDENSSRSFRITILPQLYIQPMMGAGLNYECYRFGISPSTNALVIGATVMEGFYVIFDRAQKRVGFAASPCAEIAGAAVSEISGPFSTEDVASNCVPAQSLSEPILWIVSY
Test: assay for inhibition of BACE-2
Where a name gives a salt, the structure may show the parent alone.
Observable: IC50 (nM)

Some solved entries appear below for comparison.
{"columns": ["Compound", "IC50 / nM"],
 "data": [
  ["NC1=N[C@](CF)(c2cc(NC(=O)c3ncc(Br)cc3O)ccc2F)COC1", 33],
  ["Cc1cc(C#N)cnc1C(=O)Nc1cc(F)c(F)c([C@]2(C(F)F)COCC(N)=N2)c1", 61],
  ["CN1CC(N)=NC(C)(c2cc(NC(=O)c3ccc(Br)cn3)ccc2F)C1 (stereo not shown)", 104]
]}

I = Cc1cc(OC(F)F)cnc1C(=O)Nc1ccc(F)c([C@]2(C)CO[C@@](C)(C(F)(F)F)C(N)=N2)c1
II = NC1=N[C@@](c2cc(NC(=O)c3ncc(C(F)(F)F)cc3Cl)ccc2F)(C(F)F)COC1
III = CC1(c2cccc(NC(=O)c3ccc(C(F)(F)F)cn3)c2)COCC(N)=N1 (stereo not shown) [Example 22, hydrochloride]
IV = COc1cnc(C(=O)Nc2ccc(F)c([C@]3(C(F)F)COCC(N)=N3)c2)c(Cl)c1
V = Cc1cc(OC(F)F)cnc1C(=O)Nc1ccc(F)c(C2(C)COC(CF)(CF)C(N)=N2)c1 (stereo not shown)
Put the items in order so that reported IC50 rises from first to last. Reply with the item labels sorted in the order that was asked for. I, IV, II, V, III
(I: 12 nM, IV: 82 nM, II: 130 nM, V: 426 nM, III: 1500 nM)

a = CCc1ccc(C(=O)Nc2ccc(F)c([C@]3(C(F)F)COCC(N)=N3)c2)nc1 [Example 159, hydrochloride]
b = Cc1cc(C#N)cnc1C(=O)Nc1ccc(F)c([C@]2(CF)COC(CF)(CF)C(N)=N2)c1
Pick the one with the larger IC50: a vs b Which one? Tell me its label. a

I = COC(=O)N1CC(N)=NC(c2cc(NC(=O)c3ccc(Br)cn3)ccc2F)(C(F)F)C1 (stereo not shown)
II = Cc1cc(C#N)cnc1C(=O)Nc1ccc(F)c([C@]2(C)COC(CF)(CF)C(N)=N2)c1 (single isomer, unassigned)
III = COCCOc1cnc(C(=O)Nc2ccc(F)c([C@]3(C(F)F)COCC(N)=N3)c2)c(F)c1 [Example 181, hydrochloride]
IV = N#Cc1ccc(C(=O)Nc2ccc(F)c(C3(CF)COCC(N)=N3)c2)nc1 (stereo not shown)
List the 4 entries from lowest IC50 to highest IC50 value. Kindly provide the labels arranged according to the requested ordering. I, II, IV, III

A = NC1=NC(c2cccc(NC(=O)c3cc(Br)co3)c2)(C(F)F)COC1 (stereo not shown)
B = NC1=N[C@@](c2cc(NC(=O)c3ncc(Br)cc3Cl)ccc2F)(C(F)F)COC1
C = NC1=NC(c2cccc(NC(=O)c3ncc(Br)cc3O)c2)(C(F)F)COC1 (stereo not shown)
D = COCCOc1cnc(C(=O)Nc2ccc(F)c([C@]3(C(F)F)COCC(N)=N3)c2)c(N)n1
E = Cc1cc(OC(F)F)cnc1C(=O)Nc1ccc(F)c([C@]2(C)COC(CF)(CF)C(N)=N2)c1
List these items ordered by IC50, big to small. Reply with the labels, ordered as the question asks. D, A, E, C, B
(D: 3380 nM, A: 240 nM, E: 59 nM, C: 24 nM, B: 13 nM)

* * *

Target: BACE-2 (Homo sapiens)
Construct: Recombinant BACE-2 (extracellular domain, expressed in baculovirus and purified using standard methods)
Test: assay for inhibition of BACE-2
Structures can show the parent of a compound that is named as a salt.
Observable: IC50 (nM)

{"columns": ["Compound", "IC50, nM"],
 "data": [
  ["CC1(c2cc(NC(=O)c3ccc(C#N)cn3)ccc2F)N=C(N)COCC1(F)F (stereo not shown) [Example 156]", 90],
  ["COCCN1CC(C)(c2cc(NC(=O)c3ccc(Br)cn3)ccc2F)N=C(N)C1=O (stereo not shown) [Example 196, hydrochloride]", 17],
  ["NC1=N[C@@](c2cc(NC(=O)c3cnc(Cl)cn3)ccc2F)(C(F)F)COC1 [Example 141]", 43]
]}

I = C[C@@]1(c2cc(NC(=O)c3ccc(Br)cn3)ccc2F)CO[C@@](C)(C(F)(F)F)C(N)=N1 [Example 68]
II = [2H]C([2H])([2H])OC([2H])([2H])c1cc2c(Cl)c[nH]c2nc1C(=O)Nc1ccc(F)c([C@]2(C)CO[C@@](C)(C(F)(F)F)C(N)=N2)c1 [Example 247]
III = COC(=O)N1CC(N)=NC(c2cc(NC(=O)c3ccc(C#N)cn3)ccc2F)(C(F)F)C1 (stereo not shown) [Example 205]
IV = C[C@@]1(c2cc(NC(=O)c3ncc(C(F)F)cc3Cl)ccc2F)CO[C@@](C)(C(F)(F)F)C(N)=N1 [Example 246]
Would you mind ranking these compounds by ascending IC50? Give your ranking as a list of the labels in the requested order. I, IV, II, III
(I: 3 nM, IV: 8 nM, II: 44 nM, III: 104 nM)
